TESTED_ON: UniProt:P05177
Sequence (P05177 whole entry): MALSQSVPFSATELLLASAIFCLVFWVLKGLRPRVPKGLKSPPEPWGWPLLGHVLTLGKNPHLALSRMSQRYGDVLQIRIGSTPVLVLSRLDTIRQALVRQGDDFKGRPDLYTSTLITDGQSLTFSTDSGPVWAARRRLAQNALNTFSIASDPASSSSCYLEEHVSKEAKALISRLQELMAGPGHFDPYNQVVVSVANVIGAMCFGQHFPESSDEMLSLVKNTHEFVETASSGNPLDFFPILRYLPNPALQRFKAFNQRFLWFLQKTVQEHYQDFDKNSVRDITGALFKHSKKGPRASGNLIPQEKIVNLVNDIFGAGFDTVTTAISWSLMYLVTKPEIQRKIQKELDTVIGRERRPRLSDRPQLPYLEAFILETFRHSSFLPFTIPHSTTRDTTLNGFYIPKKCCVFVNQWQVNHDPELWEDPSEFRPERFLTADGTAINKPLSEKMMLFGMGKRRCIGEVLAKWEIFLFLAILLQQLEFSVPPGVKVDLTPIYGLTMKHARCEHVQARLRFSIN
PROTOCOL_DETAILS: CYP inhibition 1A2
Format: in vitro ADME
MEASURED_ENDPOINT: IC50 (µM)
Use µM as the unit, but write only the number.

Form field: reported IC50 of COc1cc(-c2cn(C)c(=O)c(C)c2C)cc(OC)c1CN1CCC(N2CCN(c3ccc(NC4CCC(=O)NC4=O)cc3F)CC2)C(F)(F)C1 (stereo not shown) [Compound 172] 30

###

PROTOCOL_DETAILS: PO PK, mouse
Format: in vivo
ASSAY_CONTEXT: in vivo, read-out: PO PK t1/2 (converted)
Assign half-life to each entry below.
Use h as the unit, but write only the number.

Form field: reported half-life of COc1cc(-c2cn(C)c(=O)c(C)c2C)cc(OC)c1CN1CCC(N2CCN(c3ccc(NC4CCC(=O)NC4=O)cc3F)CC2)C(F)(F)C1 (single isomer, unassigned) [Compound 176] 3.5

Form field: reported half-life of COc1cc(-c2cn(C)c(=O)c(C)c2C)cc(OC)c1CN1CCC(N2CCN(c3ccc(NC4CCC(=O)NC4=O)cc3F)CC2)C(F)(F)C1 (centres unmarked) [Compound 172] 3.3

###

PROTOCOL_DETAILS: IV PK, rat
Type: in vivo
ASSAY_CONTEXT: in vivo, read-out: IV PK Vdss
MEASURED_ENDPOINT: Vd (L/kg)
Use L/kg as the unit, but write only the number.

Form field: reported Vd of COc1cc(-c2cn(C)c(=O)c(C)c2C)cc(OC)c1CN1CCC(N2CCN(c3ccc(NC4CCC(=O)NC4=O)cc3F)CC2)C(F)(F)C1 (centres unmarked) [Compound 172] 7.9

Form field: reported Vd of COc1cc(-c2cn(C)c(=O)c(C)c2C)cc(OC)c1CN1CCC(N2CCN(c3ccc(NC4CCC(=O)NC4=O)cc3F)CC2)C(F)(F)C1 (single isomer, unassigned) [Compound 176] 6.7

###

Assign half-life to each entry below.
PROTOCOL_DETAILS: IV PK, rat
Type: in vivo
ASSAY_CONTEXT: in vivo, read-out: IV PK t1/2 (converted)
Use min as the unit, but write only the number.

Form field: reported half-life of COc1cc(-c2cn(C)c(=O)c(C)c2C)cc(OC)c1CN1CCC(N2CCN(c3ccc(NC4CCC(=O)NC4=O)cc3F)CC2)C(F)(F)C1 (single isomer, unassigned) [Compound 176] 240

Form field: reported half-life of COc1cc(-c2cn(C)c(=O)c(C)c2C)cc(OC)c1CN1CCC(N2CCN(c3ccc(NC4CCC(=O)NC4=O)cc3F)CC2)C(F)(F)C1 (centres unmarked) [Compound 172] 570

###

Assign half-life to each entry below.
PROTOCOL_DETAILS: IV PK, mouse
Assay type: in vivo
ASSAY_CONTEXT: in vivo, read-out: IV PK t1/2 (converted)
Use min as the unit, but write only the number.

Form field: reported half-life of COc1cc(-c2cn(C)c(=O)c(C)c2C)cc(OC)c1CN1CCC(N2CCN(c3ccc(NC4CCC(=O)NC4=O)cc3F)CC2)C(F)(F)C1 (centres unmarked) [Compound 172] 216

Form field: reported half-life of COc1cc(-c2cn(C)c(=O)c(C)c2C)cc(OC)c1CN1CCC(N2CCN(c3ccc(NC4CCC(=O)NC4=O)cc3F)CC2)C(F)(F)C1 (single isomer, unassigned) [Compound 176] 222

###

PROTOCOL_DETAILS: PPB, dog
Format: in vitro ADME
ASSAY_CONTEXT: plasma
MEASURED_ENDPOINT: fraction unbound
Reply with the value as a number alone.

Form field: reported fraction unbound of COc1cc(-c2cn(C)c(=O)c(C)c2C)cc(OC)c1CN1CCC(N2CCN(c3ccc(NC4CCC(=O)NC4=O)cc3F)CC2)C(F)(F)C1 (single isomer, unassigned) [Compound 176] 0.065

Form field: reported fraction unbound of COc1cc(-c2cn(C)c(=O)c(C)c2C)cc(OC)c1CN1CCC(N2CCN(c3ccc(NC4CCC(=O)NC4=O)cc3F)CC2)C(F)(F)C1 (centres unmarked) [Compound 172] 0.039

###

PROTOCOL_DETAILS: Caco-2 permeability
Type: in vitro ADME
ASSAY_CONTEXT: human, B-A
MEASURED_ENDPOINT: Papp B→A (×10⁻⁶ cm/s)
Use ×10⁻⁶ cm/s as the unit, but write only the number.

Form field: reported Papp B→A of COc1cc(-c2cn(C)c(=O)c(C)c2C)cc(OC)c1CN1CCC(N2CCN(c3ccc(NC4CCC(=O)NC4=O)cc3F)CC2)C(F)(F)C1 (stereo not shown) [Compound 172] 18.7

###

TESTED_ON: BRD9 (Homo sapiens, UniProt Q9H8M2)
Sequence (Q9H8M2 whole entry): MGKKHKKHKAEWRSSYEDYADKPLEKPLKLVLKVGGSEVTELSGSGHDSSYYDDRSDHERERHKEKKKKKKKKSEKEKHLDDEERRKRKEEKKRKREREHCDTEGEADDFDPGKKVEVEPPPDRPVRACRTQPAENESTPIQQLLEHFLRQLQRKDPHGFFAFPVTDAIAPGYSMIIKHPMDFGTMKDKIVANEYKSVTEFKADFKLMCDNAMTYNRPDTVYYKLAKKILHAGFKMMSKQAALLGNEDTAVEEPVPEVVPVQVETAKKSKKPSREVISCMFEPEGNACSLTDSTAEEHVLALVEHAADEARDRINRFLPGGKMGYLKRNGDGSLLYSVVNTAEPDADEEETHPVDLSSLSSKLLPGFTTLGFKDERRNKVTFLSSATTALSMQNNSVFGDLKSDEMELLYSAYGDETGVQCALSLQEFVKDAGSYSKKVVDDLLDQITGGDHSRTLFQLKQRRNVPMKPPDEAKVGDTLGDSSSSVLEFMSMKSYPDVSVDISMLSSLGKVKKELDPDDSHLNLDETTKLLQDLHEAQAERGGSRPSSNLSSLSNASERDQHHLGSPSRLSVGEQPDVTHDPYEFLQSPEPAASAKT
PROTOCOL_DETAILS: HiBiT BRD9 degradation assay in 293T.166 (BRD9-HiBiT) cells
Assay type: cell-based
Set-up: endogenously expressing BRD9 with HiBiT fusion tag via CRISPR; host or cells: 293T.166 (BRD9-HiBiT), also expressing LgBiT ectopically
ASSAY_CONTEXT: Table 1; 293T.166 cells, 2.0 hours; class symbols; read-out: HiBiT-Degradation 293T.166 BRD9 2.0 hours (DC50)
MEASURED_ENDPOINT: DC50

Form field: reported DC50 of COc1cc(-c2cn(C)c(=O)c3ccccc23)cc(OC)c1CN1CCc2c(CN3CCC(c4ccc(NC5CCC(=O)NC5=O)cc4)CC3)cccc2C1 (stereo not drawn) < 100 nM

Form field: reported DC50 of COc1cc(-c2cn(C)c(=O)c3[nH]ncc23)cc(OC)c1Cc1ccc(CC(=O)N2CCC(c3ccc(NC4CCC(=O)NC4=O)cc3)CC2)cc1 (stereo not drawn) < 100 nM

Form field: reported DC50 of COc1cc(-c2cn(C)c(=O)c3cnccc23)cc(OC)c1CN1CCN(C(=O)CC2CCN(c3ccc(NC4CCC(=O)NC4=O)cc3C(F)(F)F)CC2)CC1 (single isomer, unassigned) [Compound 55] < 100 nM

###

Assign bioavailability to each entry below.
PROTOCOL_DETAILS: PO PK, rat
Assay type: in vivo
ASSAY_CONTEXT: in vivo, read-out: PO PK F%
Use % as the unit, but write only the number.

Form field: reported bioavailability of COc1cc(-c2cn(C)c(=O)c(C)c2C)cc(OC)c1CN1CCC(N2CCN(c3ccc(NC4CCC(=O)NC4=O)cc3F)CC2)C(F)(F)C1 (single isomer, unassigned) [Compound 176] 83

Form field: reported bioavailability of COc1cc(-c2cn(C)c(=O)c(C)c2C)cc(OC)c1CN1CCC(N2CCN(c3ccc(NC4CCC(=O)NC4=O)cc3F)CC2)C(F)(F)C1 (centres unmarked) [Compound 172] 49

###

PROTOCOL_DETAILS: IV PK, dog
Type: in vivo
ASSAY_CONTEXT: in vivo, read-out: IV PK t1/2 (converted)
MEASURED_ENDPOINT: half-life

Form field: reported half-life of COc1cc(-c2cn(C)c(=O)c(C)c2C)cc(OC)c1CN1CCC(N2CCN(c3ccc(NC4CCC(=O)NC4=O)cc3F)CC2)C(F)(F)C1 (stereo not shown) [Compound 172] 8.8 h

###

PROTOCOL_DETAILS: PO PK, mouse
Assay type: in vivo
ASSAY_CONTEXT: in vivo, read-out: PO PK F%
MEASURED_ENDPOINT: bioavailability (%)
Use % as the unit, but write only the number.

Form field: reported bioavailability of COc1cc(-c2cn(C)c(=O)c(C)c2C)cc(OC)c1CN1CCC(N2CCN(c3ccc(NC4CCC(=O)NC4=O)cc3F)CC2)C(F)(F)C1 (centres unmarked) [Compound 172] 122

Form field: reported bioavailability of COc1cc(-c2cn(C)c(=O)c(C)c2C)cc(OC)c1CN1CCC(N2CCN(c3ccc(NC4CCC(=O)NC4=O)cc3F)CC2)C(F)(F)C1 (single isomer, unassigned) [Compound 176] 74

###

TESTED_ON: UniProtKB Q9H8M2
PROTOCOL_DETAILS: HiBiT BRD9 degradation assay in 293T.166 (BRD9-HiBiT) cells
Type: cell-based
Set-up: endogenously expressing BRD9 with HiBiT fusion tag via CRISPR; host or cells: 293T.166 (BRD9-HiBiT), also expressing LgBiT ectopically
ASSAY_CONTEXT: Table 1; 293T.166 cells, 2.0 hours; class symbols; read-out: HiBiT-Degradation 293T.166 BRD9 2.0 hours (DC50)
Assign DC50 to each entry below.

Form field: reported DC50 of COc1cc(-c2cn(C)c(=O)c3[nH]ncc23)cc(Cl)c1CN1CCc2c(cccc2CN2CCC(c3ccc(NC4CCC(=O)NC4=O)cc3)C(F)(F)C2)C1 (stereo not drawn) < 0.1 µM

Form field: reported DC50 of COc1cc(-c2cn(C)c(=O)c3cnccc23)cc(OC)c1CN1CCN(C(=O)CN2CCC(c3ccc(NC4CCC(=O)NC4=O)cc3)CC2)CC1 (stereo not drawn) < 0.1 µM

Form field: reported DC50 of COc1cc(-c2cn(C)c(=O)c3ccccc23)cc(OC)c1C(=O)N1CCC(N(C)C(=O)N2CCC(c3ccc(NC4CCC(=O)NC4=O)cc3)CC2)CC1 (stereo not drawn) < 0.1 µM
